Reference for the values: ChEMBL document CHEMBL1122763

- System: Lewis lung carcinoma cell line
- assay: 50% inhibition of the tumor cell growth as compared to the untreated controls against Lewis lung cells
- Assay type: functional
- conditions: Mus musculus, read-out: ID50 (the source's name)
readout: IC50
Provide the measurement as a number trailed by its unit.

Examples from the recorded data:
> print(dat)
                                   compound  meas.value
1  NC(=O)c1nn(C2O[C@H](CO)[C@@H](O)[C@H]2O)c2nc[nH]c(=O)c12 (stereo not given in full)       20 µM
2  Cl.N=C(N)c1nn(C2O[C@H](CO)[C@H](O)[C@@H]2O)c2ncnc(O)c12 (stereo not given in full)      6.4 µM
3  N#Cc1nn(C2O[C@H](CO)[C@@H](O)[C@H]2O)c2nc[nH]c(=O)c12 (stereo not given in full)      250 µM
4  NC(=S)c1nn(C2O[C@H](CO)[C@@H](O)[C@H]2O)c2nc[nH]c(=O)c12 (stereo not given in full)      2.4 µM

Field: next compound
query: // Input: O=Nn1c(=O)c2c(O)ncnc2n1C1O[C@H](CO)[C@@H](O)[C@H]1O (stereo not given in full) . Output its IC50 only.
result: 2.5 µM
